Molecular target: CD137 expressed on cells (CHO cells expressing CD137; Jurkat cells of the Promega CD137 luciferase reporter assay) (UniProt Q07011)
Sequence (Q07011 24-255 limits assumed): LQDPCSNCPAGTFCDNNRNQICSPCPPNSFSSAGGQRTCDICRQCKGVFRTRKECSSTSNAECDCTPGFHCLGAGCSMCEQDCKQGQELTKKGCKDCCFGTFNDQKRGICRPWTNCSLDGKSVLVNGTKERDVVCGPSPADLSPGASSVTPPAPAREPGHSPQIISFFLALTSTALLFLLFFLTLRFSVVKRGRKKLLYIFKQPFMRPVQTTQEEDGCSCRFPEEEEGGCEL
Assay: cell-based or functional assay
Starred links: 1 amine or outer side, 2 acyl side, 3 side chain; linkers in the order of their positions; H or OH if unused. Positions of bridges follow the written chain, without caps; N, C: chain ends. Non-standard residues stand in square brackets, D forms with d. Chains are numbered I, II in the order given. No end group written: not given here. *: point of attachment. TATA = O=C(CC[*:1])N1CN(C(=O)CC[*:2])CN(C(=O)CC[*:3])C1; Dap(PYA) = diaminopropionic acid bearing 4-pentynoyl; Hyp = O=C(O)[C@@H]1C[C@@H](O)CN1; hArg = N=C(N)NCCCC[C@H](N)C(=O)O; tBuAla = CC(C)(C)C[C@H](N)C(=O)O; Nle = CCCC[C@H](N)C(=O)O; Pent4ynoyl = C#CCCC(=O)*; Dap = NC[C@H](N)C(=O)O; βAla = NCCC(=O)O; Sar = CNCC(=O)O
Readout Label: EC50 (nM), CD137 reporter assay, co-culture with PC3 (EphA2)

- heterotandem bicyclic peptide complex BCY10574 (linker I:4-I:11-I:18, II:1-II:8-II:15 via TATA; not fully specified (C-terminus); also: chains joined by PEG5 linker on chain 1 N-terminus, triazole to K(PYA)) peptide 1: A[hArg]DC[Hyp]LVNPLCLHP[dD]W[hArg]C peptide 2: Ac-C[tBuAla]PK(Pent4ynoyl)[dA]PYCFADPY[Nle]CA: 1
- heterotandem bicyclic peptide complex BCY10575 (linker I:4-I:11-I:18, II:1-II:8-II:15 via TATA; not fully specified (C-terminus); also: chains joined by PEG5 linker on chain 1 N-terminus, triazole to D-Lys(PYA)) peptide 1: A[hArg]DC[Hyp]LVNPLCLHP[dD]W[hArg]C peptide 2: Ac-C[tBuAla]PE[dK](Pent4ynoyl)PYCFADPY[Nle]CA: 0.62
- heterotandem bicyclic peptide complex BCY10576 (linker I:4-I:11-I:18, II:1-II:8-II:15 via TATA; not fully specified (C-terminus); also: chains joined by PEG5 linker on chain 1 N-terminus, triazole to Dap(PYA)) peptide 1: A[hArg]DC[Hyp]LVNPLCLHP[dD]W[hArg]C peptide 2: Ac-C[tBuAla]PE[dA]PYCFADPY[Nle]C-{Dap(PYA)}: 0.51
- heterotandem bicyclic peptide complex BCY10577 (linker I:14-I:21-I:28, II:1-II:8-II:15 via TATA; not fully specified (C-terminus); numbers in words are those of the source; also: chains joined by CH2 linker, triazole from PYA, linker on Dap side chain) peptide 1: {Pent4ynoyl-βAla}-[Sar][Sar][Sar][Sar][Sar][Sar][Sar][Sar][Sar][Sar]A[hArg]DC[Hyp]LVNPLCLHP[dD]W[hArg]C peptide 2: Ac-C[tBuAla]PE[dA]PYCFADPY[Nle]C[Dap]: 0.28
